Form field: log10 of IC50 (one value per entry).
Target: human αVβ5 (Homo sapiens, UniProt P06756+P18084)
Sequence (P18084 24-719 limits assumed, one chain of several): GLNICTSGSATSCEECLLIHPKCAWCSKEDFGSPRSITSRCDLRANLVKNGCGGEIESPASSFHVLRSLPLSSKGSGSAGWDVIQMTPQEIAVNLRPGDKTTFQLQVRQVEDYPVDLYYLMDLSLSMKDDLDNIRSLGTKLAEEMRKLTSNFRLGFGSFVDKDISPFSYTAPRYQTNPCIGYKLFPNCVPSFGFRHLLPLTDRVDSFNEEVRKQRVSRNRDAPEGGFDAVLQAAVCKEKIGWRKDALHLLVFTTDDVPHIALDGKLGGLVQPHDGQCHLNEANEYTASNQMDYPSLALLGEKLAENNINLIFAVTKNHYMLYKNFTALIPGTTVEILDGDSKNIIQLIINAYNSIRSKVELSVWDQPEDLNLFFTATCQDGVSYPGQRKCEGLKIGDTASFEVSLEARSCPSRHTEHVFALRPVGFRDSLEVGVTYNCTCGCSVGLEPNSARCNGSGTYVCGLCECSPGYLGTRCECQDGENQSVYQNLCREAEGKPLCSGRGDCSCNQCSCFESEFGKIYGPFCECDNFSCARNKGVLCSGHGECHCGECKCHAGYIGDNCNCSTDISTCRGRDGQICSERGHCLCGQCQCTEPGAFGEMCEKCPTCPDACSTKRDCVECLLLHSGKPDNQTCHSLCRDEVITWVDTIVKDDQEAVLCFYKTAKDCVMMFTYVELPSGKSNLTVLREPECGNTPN
Assay: human αVβ5 HTRF binding assay
Where a name gives a salt, the structure may show the parent alone.
Friendly reminder: values = log10 of IC50, unit nM.

# annotated cases, reported log10 of IC50 shown
- Cn1ncc2cc(C(CC(=O)O)n3ncc4cc(OCCc5ccc6c(n5)NCCC6)ccc43)cnc21 (stereo not drawn) [Example 117, TFA]: -0.34
- COc1ccc([C@H](CC(=O)O)n2cc3ccc(CCC4CCc5cccnc5N4)cc3n2)cn1 (stereo partly drawn): 0.18
- O=C(O)CC(c1cncc(CO)c1)n1ncc2cc(OCCc3ccc4c(n3)NCCC4)ccc21 (stereo not drawn): -0.38

Query: log10 of IC50; subject: COc1ncc(C(CC(=O)O)n2ncc3cc(OCCc4ccc5c(n4)NCCC5)ccc32)cn1 (stereo not drawn) [Example 92, TFA]
-0.41

###

Biological target: human αVβ1 (Homo sapiens, UniProt P05556+P06756)
Sequence (P06756 31-992 limits assumed): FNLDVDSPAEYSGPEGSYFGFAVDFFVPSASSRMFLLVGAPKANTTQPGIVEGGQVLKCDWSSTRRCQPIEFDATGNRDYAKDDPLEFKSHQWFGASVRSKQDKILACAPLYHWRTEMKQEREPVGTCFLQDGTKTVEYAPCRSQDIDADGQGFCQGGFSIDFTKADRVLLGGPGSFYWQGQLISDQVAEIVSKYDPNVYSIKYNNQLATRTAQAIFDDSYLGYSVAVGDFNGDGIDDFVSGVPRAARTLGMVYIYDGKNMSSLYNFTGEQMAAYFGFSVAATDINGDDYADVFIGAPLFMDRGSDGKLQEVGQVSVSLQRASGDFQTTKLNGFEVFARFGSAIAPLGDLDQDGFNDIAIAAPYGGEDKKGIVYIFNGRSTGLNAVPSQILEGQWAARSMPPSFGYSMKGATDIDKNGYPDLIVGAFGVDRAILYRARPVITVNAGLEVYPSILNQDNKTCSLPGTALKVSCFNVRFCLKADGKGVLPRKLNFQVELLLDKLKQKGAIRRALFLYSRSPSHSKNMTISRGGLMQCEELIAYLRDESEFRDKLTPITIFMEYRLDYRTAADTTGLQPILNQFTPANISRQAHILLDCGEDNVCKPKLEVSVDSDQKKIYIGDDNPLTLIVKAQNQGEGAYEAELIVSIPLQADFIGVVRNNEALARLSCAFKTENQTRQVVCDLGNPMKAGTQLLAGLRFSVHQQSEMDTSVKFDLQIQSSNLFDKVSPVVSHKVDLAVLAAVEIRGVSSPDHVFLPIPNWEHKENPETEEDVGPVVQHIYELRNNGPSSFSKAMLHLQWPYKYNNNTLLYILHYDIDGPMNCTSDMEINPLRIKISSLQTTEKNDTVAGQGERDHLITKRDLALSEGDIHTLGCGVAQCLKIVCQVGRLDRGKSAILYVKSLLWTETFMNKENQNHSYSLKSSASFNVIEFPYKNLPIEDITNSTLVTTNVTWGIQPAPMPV
Sequence (P05556 21-728 limits assumed): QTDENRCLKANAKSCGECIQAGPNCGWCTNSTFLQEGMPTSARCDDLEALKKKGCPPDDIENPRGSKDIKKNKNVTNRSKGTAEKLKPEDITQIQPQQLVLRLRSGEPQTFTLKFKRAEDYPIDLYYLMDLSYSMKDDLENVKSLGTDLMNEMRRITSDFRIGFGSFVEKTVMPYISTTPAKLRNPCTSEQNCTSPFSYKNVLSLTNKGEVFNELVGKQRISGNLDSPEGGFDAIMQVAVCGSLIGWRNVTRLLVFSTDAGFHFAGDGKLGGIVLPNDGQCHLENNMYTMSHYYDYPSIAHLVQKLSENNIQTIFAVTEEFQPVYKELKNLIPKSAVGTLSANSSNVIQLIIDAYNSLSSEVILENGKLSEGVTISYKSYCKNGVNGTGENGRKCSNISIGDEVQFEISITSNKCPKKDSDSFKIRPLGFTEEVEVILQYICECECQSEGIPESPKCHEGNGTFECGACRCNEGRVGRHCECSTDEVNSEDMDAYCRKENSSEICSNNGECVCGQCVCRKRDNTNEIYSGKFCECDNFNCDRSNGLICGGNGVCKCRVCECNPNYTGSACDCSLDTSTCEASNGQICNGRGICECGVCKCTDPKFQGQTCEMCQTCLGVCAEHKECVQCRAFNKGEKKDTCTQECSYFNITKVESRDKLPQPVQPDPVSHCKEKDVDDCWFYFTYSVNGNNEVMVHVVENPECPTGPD
Assay: human αVβ1 HTRF binding assay
Where a name gives a salt, the structure may show the parent alone.
Value Type: IC50 (nM)
The reply should be a number in nM, with the unit left off.

• O=C(O)CC(c1cnc2ccccc2c1)n1ncc2cc(OCCc3ccc4c(n3)NCCC4)ccc21 (stereo not drawn) [Example 48, TFA] = 270
• O=C(O)C[C@@H](c1cncc(CO)c1)n1ncc2cc(OCCc3ccc4c(n3)NCCC4)ccc21 = 140

Query: IC50; subject: COc1ncc([C@H](CC(=O)O)n2cc3ccc(CCc4ccc5c(n4)NCCC5)cc3n2)cn1
4300

Query: IC50; subject: O=C(O)CC(c1cnc2ncccc2c1)n1ncc2cc(OCCc3ccc4c(n3)NCCC4)ccc21 (stereo not drawn) [Example 101, TFA]
100

Query: IC50; subject: O=C(O)CC(c1cnc2[nH]ncc2c1)n1ncc2cc(OCCc3ccc4c(n3)NCCC4)ccc21 (stereo not drawn) [Example 106, TFA]
78

Query: IC50; subject: O=C(O)CC(c1cnc2c(c1)OCCO2)n1ncc2cc(OCCc3ccc4c(n3)NCCC4)ccc21 (stereo not drawn) [Example 109, TFA]
62

Query: IC50; subject: Cn1ncc2cc(C(CC(=O)O)n3ncc4cc(OCCc5ccc6c(n5)NCCC6)ccc43)cnc21 (stereo not drawn) [Example 117, TFA]
63

Query: IC50; subject: COc1ccc([C@H](CC(=O)O)n2ncc3cc(OCCc4ccc5c(n4)NCCC5)ccc32)cn1
83

Query: IC50; subject: O=C(O)CC(c1cnc2nccnc2c1)n1ncc2cc(OCCc3ccc4c(n3)NCCC4)ccc21 (stereo not drawn) [Example 95, TFA]
210

###

Target: human αVβ6 (Homo sapiens, UniProt P06756+P18564)
Sequence (P18564 22-707 limits assumed, one chain of several): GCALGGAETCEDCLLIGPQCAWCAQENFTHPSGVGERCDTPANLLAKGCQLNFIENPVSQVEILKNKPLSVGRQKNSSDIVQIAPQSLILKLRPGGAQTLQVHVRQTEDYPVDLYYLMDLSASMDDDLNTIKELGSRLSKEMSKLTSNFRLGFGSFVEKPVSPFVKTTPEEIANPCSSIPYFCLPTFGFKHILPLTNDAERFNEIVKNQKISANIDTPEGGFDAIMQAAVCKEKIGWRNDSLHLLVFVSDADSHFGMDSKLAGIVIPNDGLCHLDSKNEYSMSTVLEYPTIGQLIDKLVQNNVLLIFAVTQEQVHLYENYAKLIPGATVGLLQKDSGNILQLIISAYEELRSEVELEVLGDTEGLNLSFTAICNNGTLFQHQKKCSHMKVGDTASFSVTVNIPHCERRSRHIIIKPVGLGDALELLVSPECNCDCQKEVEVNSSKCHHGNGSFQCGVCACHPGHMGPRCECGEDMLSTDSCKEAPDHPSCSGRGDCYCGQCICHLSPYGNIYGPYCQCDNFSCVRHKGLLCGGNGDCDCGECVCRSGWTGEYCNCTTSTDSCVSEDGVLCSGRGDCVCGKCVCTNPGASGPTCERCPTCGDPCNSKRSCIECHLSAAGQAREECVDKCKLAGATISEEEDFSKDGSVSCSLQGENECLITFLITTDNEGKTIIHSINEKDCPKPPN
Assay: human αVβ6 HTRF binding assay
Conditions: recombinant human αVβ6 integrin, FITC-conjugated fibronectin
Where a name gives a salt, the structure may show the parent alone.
Value Type: pIC50
Answer as the number alone; pIC50 is minus log10 of concentration in mol/L.

# annotated cases, reported pIC50 shown
- O=C(O)CC(c1cncc(C2CC2)c1)n1ncc2cc(OCCc3ccc4c(n3)NCCC4)ccc21 (stereo not shown): 8.28
- O=C(O)CC(c1cccnc1)n1ncc2cc(OCCc3ccc4c(n3)NCCC4)ccc21 (stereo not shown) [Example 50, TFA]: 7.10
- CS(=O)(=O)c1cncc(C(CC(=O)O)n2ncc3cc(OCCc4ccc5c(n4)NCCC5)ccc32)c1 (stereo not shown) [Example 125, TFA]: 8.33

Let us examine a further case.
Query: pIC50; subject: O=C(O)CC(Cc1ccc(OCc2ccccc2)cc1)n1ncc2cc(OCCc3ccc4c(n3)NCCC4)ccc21 (stereo not shown) [Example 69, TFA]
6.40
